The measured values listed here are drawn from patent US20240174680A1.

- assayed_system: CDK2/Cyclin E1 (Homo sapiens)
- test_protocol: CDK2/Cyclin E1 Caliper LabChip EZ Reader mobility shift assay
- Type: biochemical
- Set-up: purchased Eurofins 14-475
- measurement_context: read-out: Caliper Assay (CDK2/CCNE1): IC50
property_label: IC50

Example results:
Per the reported CDK2/Cyclin E1 (Homo sapiens) data, CNC(=O)[C@@H](NC(=O)[C@@H]1CN(C(=O)c2cncs2)CC12CN(C(=O)[C@H]1CC1(C)C)C2)[C@@H](C)OC[C@H]1CC[C@@H](C)CC1 [I-354] has IC50 of ≤ 0.01 µM

With CDK2/Cyclin E1 (Homo sapiens) as the test system, CC1(C)C[C@@H]1C(=O)N1CC2(CN(C(=O)c3cnn(Cc4ccccc4)c3)C[C@H]2C(=O)N[C@H]2CCCN(C(=O)C3CCCCC3)C2)C1 [I-182] showed IC50 of 1 to 10 µM

Known value: CDK2/Cyclin E1 (Homo sapiens) IC50 of the compound CNC(=O)[C@@H](NC(=O)[C@H]1CN(C(=O)c2cncs2)CC12CN(C(=O)CC1CC1)C2)[C@@H](C)OCC1CCCCC1 [I-103B] equals > 10 µM

# value of IC50, CDK2/Cyclin E1 (Homo sapiens), item COC[C@H]1CCCN(C(=O)[C@@H](NC(=O)[C@@H]2CN(C(=O)c3cncs3)CC23CN(S(=O)(=O)C(C)(C)C)C3)[C@@H](C)OCC2CCCCC2)C1 [I-447] = 0.1 to 1 µM

Measured IC50 for this entry CNC(=O)[C@H](CCCc1ccccc1)NC(=O)[C@H]1CN(C(=O)c2cnn(Cc3ccccc3)c2)CC12CN(C(=O)[C@H]1CC1(C)C)C2 [I-101B] on CDK2/Cyclin E1 (Homo sapiens): > 10 µM

Hey, can you go through the list below and give me IC50 for every item?
1. CNC(=O)[C@@H](NC(=O)[C@@H]1CN(Cc2cnco2)CC12CN(C(=O)[C@H]1CC1(C)C)C2)[C@@H](C)OCc1ccccc1 [I-78A]
2. C[C@@H](OCC1CCCCC1)[C@H](NC(=O)[C@@H]1CN(C(=O)c2cnn(Cc3ccccc3)c2)CC12CN(C(=O)[C@H]1CC1(C)C)C2)C(=O)N1CCC(c2nnco2)CC1 [I-449]
3. COC[C@H]1CCCN(C(=O)[C@@H](NC(=O)[C@@H]2CN(C(=O)c3cncs3)CC23CN(C(=O)[C@H]2CC2(C)C)C3)[C@@H](C)OC(C)C2CCCCC2)C1 (stereo partly shown) [I-374]
4. CNC(=O)C(NC(=O)[C@@H]1CN(C(=O)c2cncs2)CC12CN(C(=O)C(C)(C)C1CC1)C2)c1cccc(C2CCOCC2)n1 (stereo partly shown) [I-338]
5. CNC(=O)[C@@H](NC(=O)[C@@H]1CN(C(=O)c2cncs2)CC12CN(C(=O)CC1CC1)C2)[C@@H](C)OCC1CCCCC1 [I-103A]

1. > 10 µM
2. ≤ 0.01 µM
3. ≤ 0.01 µM
4. > 10 µM
5. 0.1 to 1 µM

###

So I've got a bunch of compounds here, and I need their IC50 values.
- assayed_system: CDK2/Cyclin E1 (Homo sapiens, UniProt P24941)
- test_protocol: CDK2/Cyclin E1 Caliper LabChip EZ Reader mobility shift assay
- Type: biochemical
- Design: purchased Eurofins 14-475
- measurement_context: read-out: Caliper Assay (CDK2/CCNE1): IC50

Solved cases (5 shown):
get_value(item= "C[C@@H](OCC1CCCCC1)[C@H](NC(=O)[C@@H]1CN(C(=O)c2cnn(Cc3ccccc3)c2)CC12CN(C(=O)[C@H]1CC1(C)C)C2)C(=O)N1CC[C@@H]1CN" , readout=IC50) returns 10 to 100 nM

// sample CC1(C)C[C@@H]1C(=O)N1CC2(CN(C(=O)c3cnn(Cc4ccccc4)c3)C[C@H]2C(=O)Nc2ccc(-c3ccccc3)cc2)C1 [I-81A] , its IC50 was 100 to 1000 nM

Input CNC(=O)[C@@H](NC(=O)[C@H]1CN(C(=O)c2cnc(COC)s2)CC12CN(C(=O)[C@H]1CC1(C)C)C2)[C@@H](C)OCC1CCCCC1 [I-145B] . Output IC50: 1000 to 10000 nM

Measured IC50 of CO[C@H]1COCC[C@@H]1NC(=O)[C@H]1CN(C(=O)c2cnn(Cc3ccccc3)c2)CC12CN(C(=O)[C@H]1CC1(C)C)C2 [I-131B] : > 10000 nM

Briefly, IC50 measured for CNC(=O)[C@@H](NC(=O)[C@H]1CN(Cc2cnco2)CC12CN(C(=O)[C@H]1CC1(C)C)C2)[C@@H](C)OCc1ccccc1 [I-78B] : > 10000 nM

Give IC50 for all compounds that follow.
1. CNC(=O)[C@@H](NC(=O)[C@H]1CN(C(=O)c2cnn(Cc3ccccc3)c2)CC12CN(C(=O)[C@H]1CC1(C)C)C2)[C@@H](C)OCC1CCC1 [I-144B]
2. C[C@@H](OCC12CCC(CC1)CC2)[C@H](NC(=O)[C@@H]1CN(C(=O)c2cncs2)CC12CN(C(=O)[C@H]1CC1(C)C)C2)C(C)(C)O

1. 1000 to 10000 nM
2. ≤ 10 nM
